B1: KCNAB2 (parent)
chain: YVDVVFANRPDPNTPMEETVRAMT

- Variants of: B1
- Protocol Summary: protein stability index of a GFP-peptide fusion (GPS, HEK-293T) (PSI 1-6); higher = more stable;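 also: lentivirally expressed fusions sorted by FACS into six bins by GFP to DsRed ratio, PSI derived from sequencing read proportions per bin multiplied by bin number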
- Experimental Parameters: c terminus: a fixed tail appended
Measured protein stability index values are reported for all entries that follow.
Quick one: just the number, no unit, thanks!

// worked examples, protein stability index included
{"columns": ["Entry Sequence", "Value Observed"],
 "data": [
  ["YVGVVFANRPDPNTPMEETVRAMT [D3G]", 2.85],
  ["YVDVVFANRPDPNTPMETTVRAMT [E18T]", 1.64],
  ["YVDVVSANRPDPNTPMEETVRAMT [F6S]", 2.79],
  ["YVFVVFANRPDPNTPMEETVRAMT [D3F]", 2.71],
  ["YLDVVFANRPDPNTPMEETVRAMT [V2L]", 3.09],
  ["YVDVVFANRPDPNTPMEETVRAGT [M23G]", 1.56]
]}

// sample YVDVVFANQPDPNTPMEETVRAMT [R9Q] , its protein stability index was 1.98

The value of protein stability index measured for the variant YVDSVFANRPDPNTPMEETVRAMT [V4S] turned out to be 1.67
